- Test system: NCI-H1703
- procedure details: relative viability (nuclei count vs DMSO), 5 days (fraction); higher = more cells survive
- protocol conditions: first compound 0.01 µM
Provide the reported relative viability of each item.
Give bare numbers.

CCN(CC)CCCCNc1ncc2cc(-c3cc(OC)cc(OC)c3)c(NC(=O)NC(C)(C)C)nc2n1 + O=C(c1cc(Cc2n[nH]c(=O)c3ccccc23)ccc1F)N1CCN(C(=O)C2CC2)CC1 [Olaparib] (partner 8 µM)
0.313
CCN(CC)CCCCNc1ncc2cc(-c3cc(OC)cc(OC)c3)c(NC(=O)NC(C)(C)C)nc2n1 + CS(=O)(=O)CCNCc1ccc(-c2ccc3ncnc(Nc4ccc(OCc5cccc(F)c5)c(Cl)c4)c3c2)o1 [Lapatinib] (partner 2 µM)
0.912
CCN(CC)CCCCNc1ncc2cc(-c3cc(OC)cc(OC)c3)c(NC(=O)NC(C)(C)C)nc2n1 + CC(C)C[C@H](NC(=O)[C@H](Cc1ccccc1)NC(=O)c1cnccn1)B(O)O [Bortezomib] (partner 0.002 µM)
0.343

State the recorded relative viability for every item in the following list.
1. O=c1cc(N2CCOCC2)oc2c(-c3cccc4c3sc3ccccc34)cccc12 + CS(=O)(=O)CCNCc1ccc(-c2ccc3ncnc(Nc4ccc(OCc5cccc(F)c5)c(Cl)c4)c3c2)o1 [Lapatinib] (partner 2 µM)
2. O=c1cc(N2CCOCC2)oc2c(-c3cccc4c3sc3ccccc34)cccc12 + C[C@@H](Oc1cc(-c2cnn(C3CCNCC3)c2)cnc1N)c1c(Cl)ccc(F)c1Cl [Crizotinib] (partner 1 µM)

OUTPUT:
1.36
0.769

----------
- Tested on: HCC-366
- procedure details: relative viability (nuclei count vs DMSO), 5 days (fraction); higher = more cells survive
- protocol conditions: first compound 0.3162 µM
Provide the reported relative viability of each item.
Give bare numbers.

Below, 4 molecules whose answers are already recorded.
O=c1cc(N2CCOCC2)oc2c(-c3cccc4c3sc3ccccc34)cccc12 + CC(=O)Nc1cccc(-n2c(=O)n(C3CC3)c(=O)c3c(Nc4ccc(I)cc4F)n(C)c(=O)c(C)c32)c1 [Trametinib] (partner 0.02 µM)
0.333
CCN(CC)CCCCNc1ncc2cc(-c3cc(OC)cc(OC)c3)c(NC(=O)NC(C)(C)C)nc2n1 + C[C@@H](Oc1cc(-c2cnn(C3CCNCC3)c2)cnc1N)c1c(Cl)ccc(F)c1Cl [Crizotinib] (partner 1 µM)
0.741
O=c1cc(N2CCOCC2)oc2c(-c3cccc4c3sc3ccccc34)cccc12 + Cc1nc(Nc2ncc(C(=O)Nc3c(C)cccc3Cl)s2)cc(N2CCN(CCO)CC2)n1 [Dasatinib] (partner 0.075 µM)
0.601
CCN(CC)CCCCNc1ncc2cc(-c3cc(OC)cc(OC)c3)c(NC(=O)NC(C)(C)C)nc2n1 + O=C(CCCCCCC(=O)Nc1ccccc1)NO [Vorinostat] (partner 1 µM)
0.383

With those in mind, consider the next molecule.
INPUT: What measured relative viability goes with CCN(CC)CCCCNc1ncc2cc(-c3cc(OC)cc(OC)c3)c(NC(=O)NC(C)(C)C)nc2n1 + CC(C)C[C@H](NC(=O)[C@H](Cc1ccccc1)NC(=O)c1cnccn1)B(O)O [Bortezomib] (partner 0.002 µM) ?
OUTPUT: 1.29

----------
Provide the reported relative viability of each item.
- System: SK-LU-1
- procedure details: relative viability (nuclei count vs DMSO), 5 days (fraction); higher = more cells survive
- protocol conditions: first compound 2 µM
One number for each entry.

COCC1(CO)C(=O)C2CCN1CC2 (stereo not given) [PRIMA-1MET] + C[C@]1(O)C[C@@H](c2nc(-c3ccc4ccc(-c5ccccc5)nc4c3)c3c(N)nccn32)C1 [Linsitinib] (partner 1 µM)
1.14
COCC1(CO)C(=O)C2CCN1CC2 (stereo not given) [PRIMA-1MET] + Nc1ncn([C@H]2C[C@H](O)[C@@H](CO)O2)c(=O)n1 [Decitabine] (partner 2 µM)
0.503
COCC1(CO)C(=O)C2CCN1CC2 (stereo not given) [PRIMA-1MET] + CC1(C)CCC(c2ccc(Cl)cc2)=C(CN2CCN(c3ccc(C(=O)NS(=O)(=O)c4ccc(N[C@H](CCN5CCOCC5)CSc5ccccc5)c(S(=O)(=O)C(F)(F)F)c4)cc3)CC2)C1 [Navitoclax] (partner 0.5 µM)
0.789
COCC1(CO)C(=O)C2CCN1CC2 (stereo not given) [PRIMA-1MET] + COc1cc2c(Oc3ccc(NC(=O)C4(C(=O)Nc5ccc(F)cc5)CC4)cc3F)ccnc2cc1OCCCN1CCOCC1 [Foretinib] (partner 0.25 µM)
0.885

INPUT: What measured relative viability goes with COCC1(CO)C(=O)C2CCN1CC2 (stereo not given) [PRIMA-1MET] + Cc1cc(Nc2cc(N3CCN(C)CC3)nc(Sc3ccc(NC(=O)C4CC4)cc3)n2)n[nH]1 [Tozasertib] (partner 0.1 µM) ?
OUTPUT: 0.319

----------
Provide the reported relative viability of each item.
- System: COR-L 105
- procedure details: relative viability (nuclei count vs DMSO), 5 days (fraction); higher = more cells survive
- protocol conditions: first compound 2 µM
Answers are plain numbers.

COCC1(CO)C(=O)C2CCN1CC2 (configuration not stated) [PRIMA-1MET] + CC1(C)CCC(c2ccc(Cl)cc2)=C(CN2CCN(c3ccc(C(=O)NS(=O)(=O)c4ccc(N[C@H](CCN5CCOCC5)CSc5ccccc5)c(S(=O)(=O)C(F)(F)F)c4)cc3)CC2)C1 [Navitoclax] (partner 0.5 µM)
0.761

With those in mind, consider the next compound.
INPUT: What measured relative viability goes with COCC1(CO)C(=O)C2CCN1CC2 (configuration not stated) [PRIMA-1MET] + Nc1ncn([C@H]2C[C@H](O)[C@@H](CO)O2)c(=O)n1 [Decitabine] (partner 2 µM) ?
OUTPUT: 0.551

----------
Provide the reported relative viability of each item.
- Test system: NCI-H1666
- procedure details: relative viability (nuclei count vs DMSO), 5 days (fraction); higher = more cells survive
- protocol conditions: first compound 0.253 µM
One number for each entry.

Below, 3 molecules whose answers are already recorded.
COc1nc(C)cnc1NS(=O)(=O)c1cccnc1-c1ccc(-c2nnco2)cc1 [Zibotentan] + Nc1ncn([C@H]2C[C@H](O)[C@@H](CO)O2)c(=O)n1 [Decitabine] (partner 2 µM)
0.685
COc1nc(C)cnc1NS(=O)(=O)c1cccnc1-c1ccc(-c2nnco2)cc1 [Zibotentan] + CCNC(=O)c1noc(-c2cc(C(C)C)c(O)cc2O)c1-c1ccc(CN2CCOCC2)cc1 [Luminespib] (partner 0.01 µM)
0.905
O=c1cc(-c2cccc3c2Sc2ccccc2S3)oc(N2CCOCC2)c1 + CC(=O)c1c(C)c2cnc(Nc3ccc(N4CCNCC4)cn3)nc2n(C2CCCC2)c1=O [Palbociclib] (partner 0.5 µM)
0.673

INPUT: Value wanted: relative viability (NCI-H1666) of entry COc1nc(C)cnc1NS(=O)(=O)c1cccnc1-c1ccc(-c2nnco2)cc1 [Zibotentan] + CC1(C)CCC(c2ccc(Cl)cc2)=C(CN2CCN(c3ccc(C(=O)NS(=O)(=O)c4ccc(N[C@H](CCN5CCOCC5)CSc5ccccc5)c(S(=O)(=O)C(F)(F)F)c4)cc3)CC2)C1 [Navitoclax] (partner 0.5 µM)
OUTPUT: 0.785

----------
- Tested on: NCI-H2170
- procedure details: relative viability (nuclei count vs DMSO), 5 days (fraction); higher = more cells survive
- protocol conditions: first compound 1 µM
In this scheme, each record receives a class according to its relative viability; the ranges are lower band = under 0.5, central band = from 0.5 up to 0.8, upper band = 0.8 and over

CCN(CC)CCCCNc1ncc2cc(-c3cc(OC)cc(OC)c3)c(NC(=O)NC(C)(C)C)nc2n1 + N=C(N)NC(=N)NCCc1ccccc1 [Phenformin] (partner 250 µM)
lower band
O=c1cc(N2CCOCC2)oc2c(-c3cccc4c3sc3ccccc34)cccc12 + CCNC(=O)c1noc(-c2cc(C(C)C)c(O)cc2O)c1-c1ccc(CN2CCOCC2)cc1 [Luminespib] (partner 0.01 µM)
central band
O=c1cc(N2CCOCC2)oc2c(-c3cccc4c3sc3ccccc34)cccc12 + O=C(c1cc(Cc2n[nH]c(=O)c3ccccc23)ccc1F)N1CCN(C(=O)C2CC2)CC1 [Olaparib] (partner 8 µM)
central band
O=c1cc(N2CCOCC2)oc2c(-c3cccc4c3sc3ccccc34)cccc12 + C[C@@H](Oc1cc(-c2cnn(C3CCNCC3)c2)cnc1N)c1c(Cl)ccc(F)c1Cl [Crizotinib] (partner 1 µM)
upper band
O=c1cc(N2CCOCC2)oc2c(-c3cccc4c3sc3ccccc34)cccc12 + N=C(N)NC(=N)NCCc1ccccc1 [Phenformin] (partner 250 µM)
lower band
CCN(CC)CCCCNc1ncc2cc(-c3cc(OC)cc(OC)c3)c(NC(=O)NC(C)(C)C)nc2n1 + CC1(C)CCC(c2ccc(Cl)cc2)=C(CN2CCN(c3ccc(C(=O)NS(=O)(=O)c4ccc(N[C@H](CCN5CCOCC5)CSc5ccccc5)c(S(=O)(=O)C(F)(F)F)c4)cc3)CC2)C1 [Navitoclax] (partner 0.5 µM)
central band
O=c1cc(N2CCOCC2)oc2c(-c3cccc4c3sc3ccccc34)cccc12 + CC(=O)Nc1cccc(-n2c(=O)n(C3CC3)c(=O)c3c(Nc4ccc(I)cc4F)n(C)c(=O)c(C)c32)c1 [Trametinib] (partner 0.02 µM)
upper band

Then this compound:
INPUT: Class for CCN(CC)CCCCNc1ncc2cc(-c3cc(OC)cc(OC)c3)c(NC(=O)NC(C)(C)C)nc2n1 + O=C(c1cc(Cc2n[nH]c(=O)c3ccccc23)ccc1F)N1CCN(C(=O)C2CC2)CC1 [Olaparib] (partner 8 µM) ?
OUTPUT: central band
